This collection of values is drawn from patent US9440941B2.

molecular target: human NCX1 (Homo sapiens); construct: expressed in transfected cells; assay: Inhibition of Ca2+ influx into cells (NCX1 reverse mode), FLIPR Fluo-4 assay; assay type: cell-based; details: inhibition of NCX1 in reverse mode (Ca2+ influx into cells); read-out: NCX1rv IC50
Param label: returns t when IC50 < 300 nM, returns f otherwise, including exact equality.

Query: Answer whether the molecule CC1Cc2cc(OC3CCC(C(=O)NCCO)CC3)ccc2OC1c1ccccc1 (centres unmarked) has IC50 strictly less than 300 nM
Response: f

Query: Also check COC(=O)CNC(=O)C1CCC(Oc2ccc3c(c2)CCC(c2ccccc2)O3)CC1 (single isomer, unassigned; stereoisomer 2) [compound 92]
Response: t

Query: Also check O=C(N[C@H]1CC[C@H](Oc2ccc3c(c2)CCC(c2ccccc2)O3)CC1)c1ccncc1F (relative stereo)
Response: t

Query: Also check Cc1ccccc1C1CCc2cc(O[C@H]3CC[C@H](NCC(=O)O)CC3)ccc2O1 (relative stereo)
Response: f

Query: Also check COc1c(F)cccc1C1CCc2cc(OC3CCC(C(=O)NCCO)CC3)ccc2O1 (centres unmarked)
Response: f

Query: Also check Cc1c(F)cccc1C1CCc2cc(OC3CCC(C(=O)NCC(N)=O)CC3)ccc2O1 (centres unmarked)
Response: f

Query: Also check Cc1c(F)cccc1C1CCc2cc(OC3CCC(C(=O)NCc4ccno4)CC3)ccc2O1 (centres unmarked)
Response: t

###

target: human NCX1 (Homo sapiens, UniProt P32418); construct: expressed in transfected cells; assay: Inhibition of Ca2+ influx into cells (NCX1 reverse mode), FLIPR Fluo-4 assay; format: cell-based; settings: inhibition of NCX1 in reverse mode (Ca2+ influx into cells); read-out: NCX1rv IC50
readout name: pIC50
Please report pIC50 as the negative decimal logarithm of the molar concentration, giving only the number.

Query: Give pIC50 (human NCX1 (Homo sapiens, UniProt P32418)) of the following compound: Cc1ccc(F)cc1C1CCc2cc(O[C@H]3CC[C@H](NC(=O)CN)CC3)ccc2O1 (relative stereo) [compound 186]
Response: 6.40

Query: Also check Cc1ccccc1C1CCc2cc(O[C@H]3CC[C@@H](C(=O)NCCO)CC3)ccc2O1 (single isomer, unassigned) [Example 269]
Response: 6.40

Query: Also check Fc1ccccc1C1CCc2cc(OC3CCC(NC4CC4)CC3)ccc2O1 (stereo not shown) [compound 212]
Response: 5.77

Query: Also check O=C(CC1CC1)N[C@H]1CC[C@H](Oc2ccc3c(c2)CCC(c2ccccc2F)O3)CC1 (relative stereo) [compound 252]
Response: 6.52

Query: Also check O=C(Cn1cncn1)N[C@H]1CC[C@H](Oc2ccc3c(c2)CCC(c2ccccc2)O3)CC1 (relative stereo) [compound 35]
Response: 7.00

Query: Also check CCOCCCNC1CCC(Oc2ccc3c(c2)CCC(c2ccccc2)O3)CC1 (stereo not shown) [compound 112]
Response: 6.05

Query: Also check c1ccc(C2CCc3cc(O[C@H]4CC[C@H](NCc5cccs5)CC4)ccc3O2)cc1 (relative stereo) [compound 51]
Response: 6.22

Query: Also check CS(=O)(=O)NC[C@H]1CC[C@@H](Oc2ccc3c(c2)CCC(c2ccccc2)O3)CC1 (relative stereo) [compound 3]
Response: 6.15

Query: Also check CNS(=O)(=O)CCNC(=O)C1CCC(Oc2ccc3c(c2)CCC(c2cccc(F)c2C)O3)CC1 (stereo not shown) [compound 275]
Response: 6.40

Query: Also check CS(=O)(=O)CCC(=O)N[C@H]1CC[C@H](Oc2ccc3c(c2)CCC(c2ccccc2)O3)CC1 (relative stereo) [compound 21]
Response: 6.70

Query: Also check CSC(C)CCNC1CCC(Oc2ccc3c(c2)CCC(c2ccccc2F)O3)CC1 (stereo not shown) [compound 170]
Response: 5.34

Query: Also check Cn1cc(Cl)c(CN(Cc2nn(C)cc2Cl)[C@H]2CC[C@H](Oc3ccc4c(c3)CCC(c3ccccc3)O4)CC2)n1 (stereo partly shown) [compound 81]
Response: 5.40

Query: Also check CC(C)(C)CCNC1CCC(Oc2ccc3c(c2)CCC(c2ccccc2)O3)CC1 (stereo not shown) [compound 127]
Response: 5.96

Query: Also check CCSCCNC1CCC(Oc2ccc3c(c2)CCC(c2ccccc2F)O3)CC1 (stereo not shown) [compound 217]
Response: 5.64

Query: Also check CCCNC1CCC(Oc2ccc3c(c2)CCC(c2ccccc2)O3)CC1 (stereo not shown) [compound 113]
Response: 6.30

Query: Also check CCC(C)CN(CC(C)CC)[C@H]1CC[C@H](Oc2ccc3c(c2)CCC(c2ccccc2)O3)CC1 (stereo partly shown) [compound 88]
Response: 5.60

Query: Also check CC(C)CN[C@H]1CC[C@H](Oc2ccc3c(c2)CCC(c2ccccc2)O3)CC1 (stereo partly shown) [compound 65]
Response: 6.40

Query: Also check Cc1ccccc1[C@@H]1CCc2cc(O[C@H]3CC[C@H](C(=O)NCCO)CC3)ccc2O1 [Example 268]
Response: 6.82

Query: Also check O=C(N[C@H]1CC[C@H](Oc2ccc3c(c2)CCC(c2ccccc2F)O3)CC1)C1CC1(F)F (relative stereo) [compound 251]
Response: 5.30

Query: Also check CCCC(C)NC1CCC(Oc2ccc3c(c2)CCC(c2ccccc2)O3)CC1 (stereo not shown) [compound 106]
Response: 6.10

Query: Also check Cc1nn(C)c(C)c1CCC(=O)N[C@H]1CC[C@H](Oc2ccc3c(c2)CCC(c2ccccc2F)O3)CC1 (relative stereo) [compound 254]
Response: 6.52

Query: Also check O=C(CN1CCCC1)N[C@H]1CC[C@H](Oc2ccc3c(c2)CCC(c2ccccc2)O3)CC1 (relative stereo) [compound 182]
Response: 6.52

Query: Also check Cn1ccc(CN(Cc2ccn(C)n2)[C@H]2CC[C@H](Oc3ccc4c(c3)CCC(c3ccccc3)O4)CC2)n1 (stereo partly shown) [compound 84]
Response: 6.10

Query: Also check COCC(C)NC1CCC(Oc2ccc3c(c2)CCC(c2ccccc2F)O3)CC1 (stereo not shown) [compound 219]
Response: 5.62

Query: Also check CCn1nccc1CNC(=O)C1CCC(Oc2ccc3c(c2)CCC(c2ccccc2F)O3)CC1 (stereo not shown) [compound 183]
Response: 5.00

Query: Also check O=C(N[C@H]1CC[C@H](Oc2ccc3c(c2)CCC(c2ccccc2F)O3)CC1)c1ccncc1F (relative stereo) [compound 246]
Response: 7.00

Query: Also check O=C(N[C@H]1CC[C@H](Oc2ccc3c(c2)CCC(c2ccccc2F)O3)CC1)C1CCC1 (stereo partly shown) [compound 244]
Response: 7.00

Query: Also check Cc1c(F)cccc1C1CCc2cc(OC3CCC(C(=O)NCCNS(C)(=O)=O)CC3)ccc2O1 (stereo not shown) [compound 277]
Response: 6.52

Query: Also check OCCNC1CCC(Oc2ccc3c(c2)CCC(c2ccccc2)O3)CC1 (stereo not shown) [compound 15]
Response: 6.70

Query: Also check O=C(OC1CCC(Oc2ccc3c(c2)CCC(c2ccccc2)O3)CC1)c1ccncc1F (stereo not shown) [compound 89]
Response: 6.40

Query: Also check CCCNC1CCC(Oc2ccc3c(c2)CCC(c2ccccc2C)O3)CC1 (stereo not shown) [compound 205]
Response: 5.82

###

Provide the reported IC50 of each item.
Molecular target: human NCX1 (Homo sapiens, UniProt P32418)
Construct: expressed in transfected cells
Experiment: Inhibition of Ca2+ influx into cells (NCX1 reverse mode), FLIPR Fluo-4 assay
Format: cell-based
Settings: inhibition of NCX1 in reverse mode (Ca2+ influx into cells); read-out: NCX1rv IC50
Procedure: The sodium/calcium exchanger NCX1 can transport calcium ions and sodium ions through the cell membrane. The transport is an exchange of Ca^2+ and Na^+ in two directions depending on membrane potential and ion gradients. […] The effect of the compounds of the invention on NCX1 was determined in CHO cells stably expressing human NCX1 (gene symbol SLC8A1; cf. WO 2009/115238). […]
Please reply with the bare figure in nM and do not write the unit itself.

Query: Which IC50 value belongs to CC1(O)CCC(Oc2ccc3c(c2)CCC(c2ccccc2)O3)CC1 (centres unmarked) [compound 163] ?
Response: 600

Query: Also check CC(=O)OC1CCC(Oc2ccc3c(c2)CCC(c2ccccc2)O3)CC1 (centres unmarked) [compound 78]
Response: 600

Query: Also check O=C(N[C@H]1CC[C@H](Oc2ccc3c(c2)CCC(c2ccccc2)O3)CC1)C1CC1 (relative stereo) [compound 26]
Response: 100

Query: Also check CCn1nccc1CNC(=O)C1CCC(Oc2ccc3c(c2)CCC(c2ccccc2)O3)CC1 (centres unmarked) [compound 14]
Response: 400

Query: Also check c1ccc(C2CCc3cc(O[C@H]4CC[C@H](NCc5cncs5)CC4)ccc3O2)cc1 (relative stereo) [compound 47]
Response: 400

Query: Also check CC(=O)N[C@H]1CC[C@H](Oc2ccc3c(c2)CCC(c2ccccc2)O3)CC1 (relative stereo) [compound 7]
Response: 300

Query: Also check COCCNC1CCC(Oc2ccc3c(c2)CCC(c2ccccc2F)O3)CC1 (centres unmarked) [compound 214]
Response: 1600

Query: Also check CCC(C)CNC1CCC(Oc2ccc3c(c2)CCC(c2ccccc2)O3)CC1 (centres unmarked) [compound 101]
Response: 900
